EXPERIMENTAL_DETAILS: Plasma concentration of RM-133 with different vehicles
Assay type: in vivo, Balb/c mice
CONDITION_DETAILS: female, Balb/c, mouse, sc, 120 mg/kg, vehicle #1 propylene glycol (92%) EtOH (8%), single s.c. 120 mg/kg in 0.1 mL
MEASURED_PROPERTY: concentration at 3 h (ng/mL)
The figure you give is taken to be in ng/mL; do not add the unit.

Entry C#C[C@]1(O)CC[C@H]2[C@@H]3CC[C@H]4C[C@H](O)[C@@H](N5CCN(C(=O)[C@@H]6CCCN6C(=O)c6ccc7ccccc7n6)CC5)C[C@]4(C)[C@H]3CC[C@@]21C [RM-133] needs its concentration at 3 h filled in; supply it. 314

----------
EXPERIMENTAL_DETAILS: Plasma concentration of RM-133 with different vehicles
Format: in vivo, Balb/c mice
CONDITION_DETAILS: female, Balb/c, mouse, sc, 120 mg/kg, vehicle #6 aqueous 25% β-cyclodextrin (92%) EtOH (8%), single s.c. 120 mg/kg in 0.1 mL
MEASURED_PROPERTY: concentration at 12 h (ng/mL)
The figure you give is taken to be in ng/mL; do not add the unit.

Entry C#C[C@]1(O)CC[C@H]2[C@@H]3CC[C@H]4C[C@H](O)[C@@H](N5CCN(C(=O)[C@@H]6CCCN6C(=O)c6ccc7ccccc7n6)CC5)C[C@]4(C)[C@H]3CC[C@@]21C needs its concentration at 12 h filled in; supply it. 1780

----------
EXPERIMENTAL_DETAILS: Plasma concentration of RM-133 with different vehicles
Type: in vivo, Balb/c mice
CONDITION_DETAILS: female, Balb/c, mouse, sc, 120 mg/kg, vehicle #1 propylene glycol (92%) EtOH (8%), single s.c. 120 mg/kg in 0.1 mL
MEASURED_PROPERTY: concentration at 12 h (ng/mL)
The figure you give is taken to be in ng/mL; do not add the unit.

Entry C#C[C@]1(O)CC[C@H]2[C@@H]3CC[C@H]4C[C@H](O)[C@@H](N5CCN(C(=O)[C@@H]6CCCN6C(=O)c6ccc7ccccc7n6)CC5)C[C@]4(C)[C@H]3CC[C@@]21C needs its concentration at 12 h filled in; supply it. 189

----------
EXPERIMENTAL_DETAILS: RM-133 plasma and tumor concentration in nude mice after the xenograft experiment (second part), LC-MS/MS
Format: in vivo, nu/nu nude mice
CONDITION_DETAILS: nu/nu nude, mouse, plasma, sc, 60 mg/kg, 12 h after single s.c. 60 mg/kg (0.1 mL), group A: previously treated daily for 21 days
MEASURED_PROPERTY: concentration at 12 h (ng/mL)
The figure you give is taken to be in ng/mL; do not add the unit.

Entry C#C[C@]1(O)CC[C@H]2[C@@H]3CC[C@H]4C[C@H](O)[C@@H](N5CCN(C(=O)[C@@H]6CCCN6C(=O)c6ccc7ccccc7n6)CC5)C[C@]4(C)[C@H]3CC[C@@]21C needs its concentration at 12 h filled in; supply it. 178

----------
EXPERIMENTAL_DETAILS: Plasma concentration of RM-133 with different vehicles
Assay type: in vivo, Balb/c mice
CONDITION_DETAILS: female, Balb/c, mouse, sc, 120 mg/kg, vehicle #6 aqueous 25% β-cyclodextrin (92%) EtOH (8%), single s.c. 120 mg/kg in 0.1 mL
MEASURED_PROPERTY: concentration at 3 h
Express your answer as a number followed by its unit.

Entry C#C[C@]1(O)CC[C@H]2[C@@H]3CC[C@H]4C[C@H](O)[C@@H](N5CCN(C(=O)[C@@H]6CCCN6C(=O)c6ccc7ccccc7n6)CC5)C[C@]4(C)[C@H]3CC[C@@]21C needs its concentration at 3 h filled in; supply it. 2960 ng/mL
